tested on: normal ECG in rats; experiment: The effect on normal electrocardiogram in rats; assay type: in vivo, rat; conditions: anesthetized rats, i.p. at ED84; 10 min
Known QTc (ECG, Bazett) of a selection of molecules
Please reply with the bare figure in ms and do not write the unit itself.

Observe how each entry below is paired with its result.
COc1ccccc1N1CCN(CCCOc2cc(C)cc(C)c2C)CC1 ... 184.2
COc1ccccc1N1CCN(CCCOc2c(C)cc(C)cc2C)CC1 ... 173.4
COc1ccccc1N1CCN(CCOCCOc2c(C)cccc2Cl)CC1.Cl ... 211.3

Enter measured QTc (ECG, Bazett), system normal ECG in rats, for the molecule shown: "COc1ccccc1N1CCN(CCOCCOc2c(C)cccc2C)CC1.Cl"
214.8

Enter measured QTc (ECG, Bazett), system normal ECG in rats, for the molecule shown: "COc1ccccc1N1CCN(CCCOc2cc(C)ccc2Cl)CC1"
120.2
